Biological target: Human recombinant Histone Deacetylase 8 (HDAC8) (Homo sapiens (Human), UniProt Q9BY41)
Sequence (Q9BY41 whole entry): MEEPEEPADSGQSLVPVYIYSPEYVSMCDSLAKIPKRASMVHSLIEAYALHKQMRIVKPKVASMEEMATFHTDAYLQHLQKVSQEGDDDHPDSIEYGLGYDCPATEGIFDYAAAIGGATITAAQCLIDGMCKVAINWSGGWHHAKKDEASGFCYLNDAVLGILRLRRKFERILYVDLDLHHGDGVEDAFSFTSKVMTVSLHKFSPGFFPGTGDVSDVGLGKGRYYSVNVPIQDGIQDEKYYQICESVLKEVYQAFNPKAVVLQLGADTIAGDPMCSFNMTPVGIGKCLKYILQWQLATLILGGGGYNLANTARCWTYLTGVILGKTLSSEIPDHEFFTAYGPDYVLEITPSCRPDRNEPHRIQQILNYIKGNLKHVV
Assay: HDAC8 Enzymatic Assay (HDAC-Glo I/II luminescence)
Assay type: biochemical
Conditions: class symbols, Table 14; read-out: HDAC8 IC50
pIC50: −log10 of the molar value.
reported-metric: pIC50

[
  {
    "molecule": "O=C(NO)C(Cc1ccccc1)n1ncc2cc(-c3c(F)cccc3F)ncc21 (centres unmarked) [Compound I-0087]",
    "pIC50": "< 6.30"
  },
  {
    "molecule": "O=C(NO)C(Cc1ccccc1)n1cc2cc(Br)cnc2n1 (centres unmarked) [Compound I-0123]",
    "pIC50": "6.30 to 6.70"
  },
  {
    "molecule": "O=C(NO)C(Cc1ccccc1)n1cc2c(Cl)nccc2n1 (centres unmarked) [Compound I-0056]",
    "pIC50": "< 6.30"
  },
  {
    "molecule": "N/C(=N\\O)c1cccc(-c2ccc3c(cnn3C(Cc3ccccc3)C(=O)NO)c2)c1 (centres unmarked) [Compound I-0107]",
    "pIC50": "6.70 to 7.30"
  },
  {
    "molecule": "O=C(NO)C(Cc1ccccc1)c1cnc2cc(-c3cccnc3)ccn12 (centres unmarked) [Compound I-0114]",
    "pIC50": "6.30 to 6.70"
  }
]

pIC50 reported for this molecule COc1ccc(-c2cc3cnn(C(Cc4ccccc4)C(=O)NO)c3cn2)cn1 (centres unmarked) [Compound I-0096] : < 6.30

----------
Molecular target: Human recombinant Histone Deacetylase 8 (HDAC8) (Homo sapiens (Human))
Assay: HDAC8 Enzymatic Assay (HDAC-Glo I/II luminescence)
Type: biochemical
Conditions: class symbols, Table 14; read-out: HDAC8 IC50
Procedure: HDAC-Glo™ I/II Assay Kit was purchased from Promega Corporation (Madison, Wis.), including the following components: HDAC-Glo I/II Buffer (25 mM Tris buffer, pH 8.0, supplemented with 137 mM: NaCl, 2.7 mM KCl, 1% v/v Triton X-100 and 1 mM: MgCl2), luminogenic substrates Boc-GAK(Ac)-aminoluciferin (HDAC-Glo I/II substrate), proprietary developer reagent (containing trypsin). Human recombinant Histone Deacetylase 8 (HDAC8) was purchased from Enzo Life Sciences (Plymouth Meeting, Pa.). […]
pIC50: −log10 of the molar value.
Reported pIC50 values follow for various compounds

Solved cases (2 shown):
[
  {
    "compound": "COCCn1cc(-c2cccc3c(C#CC4CC4)n(C(Cc4ccccc4)C(=O)NO)nc23)c(C)n1 (centres unmarked)",
    "tested-target": "Human recombinant Histone Deacetylase 8 (HDAC8) (Homo sapiens (Human))",
    "pIC50": "≥ 7.30"
  },
  {
    "compound": "NC(=O)c1ccc(-c2cccn3c(C(Cc4ccccc4)C(=O)NO)cnc23)cc1 (centres unmarked)",
    "tested-target": "Human recombinant Histone Deacetylase 8 (HDAC8) (Homo sapiens (Human))",
    "pIC50": "6.30 to 6.70"
  }
]

The value of pIC50 recorded for NC(=O)c1cccc(-c2cccn3c(C(Cc4ccccc4)C(=O)NO)cnc23)c1 (centres unmarked) when tested on Human recombinant Histone Deacetylase 8 (HDAC8) (Homo sapiens (Human)) reads 6.30 to 6.70

The value of pIC50 recorded for Cn1cc(-c2cccc3cn(C(Cc4ccccc4)C(=O)NO)nc23)cn1 (centres unmarked) when tested on Human recombinant Histone Deacetylase 8 (HDAC8) (Homo sapiens (Human)) reads 6.30 to 6.70

The value of pIC50 recorded for Cc1ccc2nn(C(Cc3ccccc3)C(=O)NO)c(C#CC3CC3)c2c1 (centres unmarked) when tested on Human recombinant Histone Deacetylase 8 (HDAC8) (Homo sapiens (Human)) reads ≥ 7.30

The value of pIC50 recorded for O=C(NO)C(Cc1ccccc1)n1cc2cccc(CN3CCCC(F)(F)C3)c2n1 (centres unmarked) when tested on Human recombinant Histone Deacetylase 8 (HDAC8) (Homo sapiens (Human)) reads 6.30 to 6.70

The value of pIC50 recorded for O=C(NO)C(Cc1ccccc1)n1cc2cc(Br)ncc2n1 (centres unmarked) when tested on Human recombinant Histone Deacetylase 8 (HDAC8) (Homo sapiens (Human)) reads < 6.30

The value of pIC50 recorded for O=C(NO)C(Cc1ccccc1)n1cc2ccnc(-c3cncnc3)c2n1 (centres unmarked) when tested on Human recombinant Histone Deacetylase 8 (HDAC8) (Homo sapiens (Human)) reads ≥ 7.30

The value of pIC50 recorded for CN(C)C(=O)c1ccc(-c2nccc3c(C#CC4CC4)n(C(Cc4ccccc4)C(=O)NO)nc23)cc1 (centres unmarked) when tested on Human recombinant Histone Deacetylase 8 (HDAC8) (Homo sapiens (Human)) reads ≥ 7.30

The value of pIC50 recorded for Cn1nccc1-c1ccc2c(cnn2C(Cc2ccccc2)C(=O)NO)n1 (centres unmarked) when tested on Human recombinant Histone Deacetylase 8 (HDAC8) (Homo sapiens (Human)) reads 6.30 to 6.70

The value of pIC50 recorded for O=C(NO)C(Cc1ccccc1)n1ccc2c(Cl)nccc21 (centres unmarked) when tested on Human recombinant Histone Deacetylase 8 (HDAC8) (Homo sapiens (Human)) reads 6.30 to 6.70

The value of pIC50 recorded for Cn1nc(C(Cc2ccccc2)C(=O)NO)c2ccc(-c3cncnc3)cc21 (centres unmarked) when tested on Human recombinant Histone Deacetylase 8 (HDAC8) (Homo sapiens (Human)) reads 6.70 to 7.30

The value of pIC50 recorded for Cn1cc(-c2ccc3c(cnn3C(Cc3ccccc3)C(=O)NO)c2)cn1 (centres unmarked) when tested on Human recombinant Histone Deacetylase 8 (HDAC8) (Homo sapiens (Human)) reads 6.70 to 7.30

The value of pIC50 recorded for Cn1nccc1-c1ccc2nn(C(Cc3ccccc3)C(=O)NO)c(C#CC3CC3)c2c1 (centres unmarked) when tested on Human recombinant Histone Deacetylase 8 (HDAC8) (Homo sapiens (Human)) reads ≥ 7.30

The value of pIC50 recorded for O=C(NO)C(Cc1ccccc1)n1ncc2ccc(Br)cc21 (centres unmarked) when tested on Human recombinant Histone Deacetylase 8 (HDAC8) (Homo sapiens (Human)) reads < 6.30

The value of pIC50 recorded for O=C(NO)C(Cc1ccccc1)n1nc2ccc(-c3ccccc3)cc2c1C#CC1CC1 (centres unmarked) when tested on Human recombinant Histone Deacetylase 8 (HDAC8) (Homo sapiens (Human)) reads 6.70 to 7.30

The value of pIC50 recorded for O=C(NO)C(Cc1ccccc1)n1cc2cccc(CN3CCC(N4CCOCC4)CC3)c2n1 (centres unmarked) when tested on Human recombinant Histone Deacetylase 8 (HDAC8) (Homo sapiens (Human)) reads < 6.30
